Test: Stability under influencing factors (high temperature, high humidity, open, 30 days)
Settings: 92.5% RH, 30 days

- molecule: "CC(C)(C#Cc1nc(C(Cc2cc(F)cc(F)c2)NC(=O)Cn2nc(C(F)(F)F)c3c2C(F)(F)C2CC32)c(-c2ccc(Cl)c3c([N-]S(C)(=O)=O)nn(CC(F)(F)F)c23)c2c1CCC2)S(C)(=O)=O.C[N+](C)(C)CCO (centres unmarked) [Crystal form B of the choline salt]"
  Color, properties: "White solid"
- molecule: "CC(C)(C#Cc1nc(C(Cc2cc(F)cc(F)c2)NC(=O)Cn2nc(C(F)(F)F)c3c2C(F)(F)C2CC32)c(-c2ccc(Cl)c3c(NS(C)(=O)=O)nn(CC(F)(F)F)c23)c2c1CCC2)S(C)(=O)=O.O=S(=O)(O)O (centres unmarked) [Crystal form A of hydrosulfate]"
  Color, properties: "White solid"
- molecule: "CC(C)(C#Cc1nc(C(Cc2cc(F)cc(F)c2)NC(=O)Cn2nc(C(F)(F)F)c3c2C(F)(F)C2CC32)c(-c2ccc(Cl)c3c([N-]S(C)(=O)=O)nn(CC(F)(F)F)c23)c2c1CCC2)S(C)(=O)=O.[K+] (centres unmarked) [Crystal form a of the potassium salt]"
  Color, properties: "White solid"
- molecule: "CC(C)(C#Cc1nc(C(Cc2cc(F)cc(F)c2)NC(=O)Cn2nc(C(F)(F)F)c3c2C(F)(F)C2CC32)c(-c2ccc(Cl)c3c([N-]S(C)(=O)=O)nn(CC(F)(F)F)c23)c2c1CCC2)S(C)(=O)=O.[Na+] (centres unmarked) [Crystal form III of the sodium salt]"
  Color, properties: "White solid"
- molecule: "CC(C)(C#Cc1nc(C(Cc2cc(F)cc(F)c2)NC(=O)Cn2nc(C(F)(F)F)c3c2C(F)(F)C2CC32)c(-c2ccc(Cl)c3c([N-]S(C)(=O)=O)nn(CC(F)(F)F)c23)c2c1CCC2)S(C)(=O)=O.[Na+] (centres unmarked) [Crystal form II of the sodium salt]"
  Color, properties: "White solid"

###

Test: Stability under influencing factors (high temperature, high humidity, open, 30 days)
Conditions: 92.5% RH, 5 days
property: Purity %

- molecule: "CC(C)(C#Cc1nc(C(Cc2cc(F)cc(F)c2)NC(=O)Cn2nc(C(F)(F)F)c3c2C(F)(F)C2CC32)c(-c2ccc(Cl)c3c([N-]S(C)(=O)=O)nn(CC(F)(F)F)c23)c2c1CCC2)S(C)(=O)=O.[K+] (stereo not shown) [Crystal form a of the potassium salt]"
  recorded result: "97.96%"
- molecule: "CC(C)(C#Cc1nc(C(Cc2cc(F)cc(F)c2)NC(=O)Cn2nc(C(F)(F)F)c3c2C(F)(F)C2CC32)c(-c2ccc(Cl)c3c([N-]S(C)(=O)=O)nn(CC(F)(F)F)c23)c2c1CCC2)S(C)(=O)=O.[Na+] (stereo not shown) [Crystal form III of the sodium salt]"
  recorded result: "97.94%"
- molecule: "CC(C)(C#Cc1nc(C(Cc2cc(F)cc(F)c2)NC(=O)Cn2nc(C(F)(F)F)c3c2C(F)(F)C2CC32)c(-c2ccc(Cl)c3c(NS(C)(=O)=O)nn(CC(F)(F)F)c23)c2c1CCC2)S(C)(=O)=O.O=S(=O)(O)O (stereo not shown) [Crystal form A of hydrosulfate]"
  recorded result: "99.18%"
- molecule: "CC(C)(C#Cc1nc(C(Cc2cc(F)cc(F)c2)NC(=O)Cn2nc(C(F)(F)F)c3c2C(F)(F)C2CC32)c(-c2ccc(Cl)c3c([N-]S(C)(=O)=O)nn(CC(F)(F)F)c23)c2c1CCC2)S(C)(=O)=O.C[N+](C)(C)CCO (stereo not shown) [Crystal form B of the choline salt]"
  recorded result: "98.45%"

###

Let's look at some compounds and their measured Hygroscopicity 0.0% RH-95.0% RH.
Test: Hygroscopicity of salt crystal forms (DVS, 25° C.)
Format: physicochemical
Details: DVS, 25° C., 0.0% RH-95.0% RH

- compound: "CC(C)(C#Cc1nc(C(Cc2cc(F)cc(F)c2)NC(=O)Cn2nc(C(F)(F)F)c3c2C(F)(F)C2CC32)c(-c2ccc(Cl)c3c(NS(C)(=O)=O)nn(CC(F)(F)F)c23)c2c1CCC2)S(C)(=O)=O.O=S(=O)(O)O (stereo not drawn) [Crystal form A of hydrosulfate]"
  Hygroscopicity 0.0% RH-95.0% RH, %: 4.55
- compound: "CC(C)(C#Cc1nc(C(Cc2cc(F)cc(F)c2)NC(=O)Cn2nc(C(F)(F)F)c3c2C(F)(F)C2CC32)c(-c2ccc(Cl)c3c([N-]S(C)(=O)=O)nn(CC(F)(F)F)c23)c2c1CCC2)S(C)(=O)=O.[Na+] (stereo not drawn) [Crystal form II of the sodium salt]"
  Hygroscopicity 0.0% RH-95.0% RH, %: 34.16
- compound: "CC(C)(C#Cc1nc(C(Cc2cc(F)cc(F)c2)NC(=O)Cn2nc(C(F)(F)F)c3c2C(F)(F)C2CC32)c(-c2ccc(Cl)c3c([N-]S(C)(=O)=O)nn(CC(F)(F)F)c23)c2c1CCC2)S(C)(=O)=O.[Na+] (stereo not drawn) [Crystal form IV of the sodium salt]"
  Hygroscopicity 0.0% RH-95.0% RH, %: 1.03
- compound: "CC(C)(C#Cc1nc(C(Cc2cc(F)cc(F)c2)NC(=O)Cn2nc(C(F)(F)F)c3c2C(F)(F)C2CC32)c(-c2ccc(Cl)c3c([N-]S(C)(=O)=O)nn(CC(F)(F)F)c23)c2c1CCC2)S(C)(=O)=O.[Na+] (stereo not drawn) [Crystal form III of the sodium salt]"
  Hygroscopicity 0.0% RH-95.0% RH, %: 2.04
- compound: "CC(C)(C#Cc1nc(C(Cc2cc(F)cc(F)c2)NC(=O)Cn2nc(C(F)(F)F)c3c2C(F)(F)C2CC32)c(-c2ccc(Cl)c3c([N-]S(C)(=O)=O)nn(CC(F)(F)F)c23)c2c1CCC2)S(C)(=O)=O.[K+] (stereo not drawn) [Crystal form a of the potassium salt]"
  Hygroscopicity 0.0% RH-95.0% RH, %: 8.77
- compound: "CC(C)(C#Cc1nc(C(Cc2cc(F)cc(F)c2)NC(=O)Cn2nc(C(F)(F)F)c3c2C(F)(F)C2CC32)c(-c2ccc(Cl)c3c([N-]S(C)(=O)=O)nn(CC(F)(F)F)c23)c2c1CCC2)S(C)(=O)=O.C[N+](C)(C)CCO (stereo not drawn) [Crystal form B of the choline salt]"
  Hygroscopicity 0.0% RH-95.0% RH, %: 9.92

###

Assay: Stability under influencing factors (high temperature, high humidity, open, 30 days)
Conditions: 40° C., 30 days

- compound: "CC(C)(C#Cc1nc(C(Cc2cc(F)cc(F)c2)NC(=O)Cn2nc(C(F)(F)F)c3c2C(F)(F)C2CC32)c(-c2ccc(Cl)c3c(NS(C)(=O)=O)nn(CC(F)(F)F)c23)c2c1CCC2)S(C)(=O)=O.O=S(=O)(O)O (centres unmarked) [Crystal form A of hydrosulfate]"
  Color, properties: "White solid"
- compound: "CC(C)(C#Cc1nc(C(Cc2cc(F)cc(F)c2)NC(=O)Cn2nc(C(F)(F)F)c3c2C(F)(F)C2CC32)c(-c2ccc(Cl)c3c([N-]S(C)(=O)=O)nn(CC(F)(F)F)c23)c2c1CCC2)S(C)(=O)=O.[K+] (centres unmarked) [Crystal form a of the potassium salt]"
  Color, properties: "White solid"

###

Assay: Stability under influencing factors (high temperature, high humidity, open, 30 days)
Conditions: 75% RH, 5 days
Let's look at some molecules and their measured Purity %.
property: Purity %

- molecule: "CC(C)(C#Cc1nc(C(Cc2cc(F)cc(F)c2)NC(=O)Cn2nc(C(F)(F)F)c3c2C(F)(F)C2CC32)c(-c2ccc(Cl)c3c([N-]S(C)(=O)=O)nn(CC(F)(F)F)c23)c2c1CCC2)S(C)(=O)=O.[K+] (stereo not shown) [Crystal form a of the potassium salt]"
  property: "Purity %"
  recorded result: "97.96%"
- molecule: "CC(C)(C#Cc1nc(C(Cc2cc(F)cc(F)c2)NC(=O)Cn2nc(C(F)(F)F)c3c2C(F)(F)C2CC32)c(-c2ccc(Cl)c3c([N-]S(C)(=O)=O)nn(CC(F)(F)F)c23)c2c1CCC2)S(C)(=O)=O.[Na+] (stereo not shown) [Crystal form III of the sodium salt]"
  property: "Purity %"
  recorded result: "98.08%"
- molecule: "CC(C)(C#Cc1nc(C(Cc2cc(F)cc(F)c2)NC(=O)Cn2nc(C(F)(F)F)c3c2C(F)(F)C2CC32)c(-c2ccc(Cl)c3c(NS(C)(=O)=O)nn(CC(F)(F)F)c23)c2c1CCC2)S(C)(=O)=O.O=S(=O)(O)O (stereo not shown) [Crystal form A of hydrosulfate]"
  property: "Purity %"
  recorded result: "99.11%"
- molecule: "CC(C)(C#Cc1nc(C(Cc2cc(F)cc(F)c2)NC(=O)Cn2nc(C(F)(F)F)c3c2C(F)(F)C2CC32)c(-c2ccc(Cl)c3c([N-]S(C)(=O)=O)nn(CC(F)(F)F)c23)c2c1CCC2)S(C)(=O)=O.C[N+](C)(C)CCO (stereo not shown) [Crystal form B of the choline salt]"
  property: "Purity %"
  recorded result: "98.35%"

Value source: patent US20250320194A1
